- EXPERIMENTAL_DETAILS: S. aureus quorum sensing inhibitors, primary screen, RNAIII-GFP reporter, flow cytometry (AID 527)
- CONDITION_SET: S. aureus RN6390 RNAIII-GFP reporter, AIP-induced, flow cytometry 3 h; at 2 µM
In all, about 24,000 compounds went through this assay and about 65 (0.3%) were called active.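 The calls were made as follows: active = share of bacteria positive for the green fluorescent reporter and its mean brightness both inhibited by 50% or more; inactive = the rest, inconclusive results apart.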 The list comes from a sample in which actives are over-represented; it also holds close analogues and randomly drawn compounds.
Classes to choose from: active, inactive

Take a look at these entries with their results.
COMPOUND: COc1cc2[nH]c(=S)n(Cc3ccc(C)o3)c(=O)c2cc1OC
LABEL_VALUE: inactive
//
COMPOUND: CCOC(=O)c1cc(NC(=O)SCC(=O)O)c(C)nc1C
LABEL_VALUE: inactive
//
COMPOUND: CNC(=O)NCCN1CCCC1=O
LABEL_VALUE: inactive
//
COMPOUND: O=C(CN1CCN(S(=O)(=O)c2ccc(F)cc2)CC1)Nc1ccccc1F
LABEL_VALUE: inactive
//
COMPOUND: COc1ccc(-c2noc(COc3ccc(Cl)c(C)c3)n2)cc1
LABEL_VALUE: inactive
//
COMPOUND: COc1ccccc1N1CCN(c2nc3ccccc3n3nnnc23)CC1
LABEL_VALUE: inactive
//
COMPOUND: CC1CCCCC1NC(=O)CCS(=O)(=O)c1cccc2nonc12 (stereo not drawn)
LABEL_VALUE: inactive
//
COMPOUND: Cc1nnc(SCCCn2c(N3CCCCC3)nc3c2c(=O)[nH]c(=O)n3C)s1
LABEL_VALUE: inactive

q: Hi, sorry to bother you, what did the test record for `COC(=O)Cn1c(=NC(=O)CSCC(=O)Nc2cc(C)on2)sc2ccccc21` ?
a: inactive
